tested on: 156681-154-R-J1-PDC complex spheroid viability; test: Anticancer human tumor 156681-154-R-J1-PDC patient-derived melanoma cell line growth inhibition [CLK]; details: second compound 10 µM; first compound 0.316 µM; stronger effect = lower value
Field: label. Allowed values: Criterion met (viability, T/C < 3%) or Criterion not met (viability, T/C >= 3%).

- C#Cc1c(F)ccc2cc(O)cc(-c3ncc4c(N5CC6CCC(C5)N6)nc(OCC56CCCN5CC(F)C6)nc4c3F)c12 (stereo not given) + CN1CCN(c2cc(C(=O)Nc3cc4cc(-c5cnn(C)c5)ccc4cn3)ccn2)CC1: Criterion met
- COc1ccc([C@@H](O)c2cc(-c3ncnc4cc(N5CCOCC5)ccc34)c(F)cc2Cl)nn1 + CNC(=O)c1ccc(Nc2nc(OC3CCCC3)c3c(-c4ccc5nc(C)oc5c4)c[nH]c3n2)c(OC)c1: Criterion not met
- COC1C=CCC(C)C(C)S(=O)(=O)NC(=O)c2ccc3c(c2)N(CC2CCC21)CC1(CCCc2cc(Cl)ccc21)CO3 (stereo not given) + CN1CCN(c2cc(C(=O)Nc3cc4cc(-c5cnn(C)c5)ccc4cn3)ccn2)CC1: Criterion met
- C=C(F)C(=O)N1CCN(c2nc(OCC3CCCN3C)nc3c2CCN(c2cccc4cccc(Cl)c24)C3)CC1CC#N (stereo not given) + CN1CCN(c2cc(C(=O)Nc3cc4cc(-c5cnn(C)c5)ccc4cn3)ccn2)CC1: Criterion met
- CCc1c2c(nc3ccc(O)cc13)-c1cc3c(c(=O)n1C2)COC(=O)[C@]3(O)CC + CN1CCN(c2cc(C(=O)Nc3cc4cc(-c5cnn(C)c5)ccc4cn3)ccn2)CC1: Criterion met
- C=C(F)C(=O)N1CCN(c2nc(OCC3CCCN3C)nc3c2CCN(c2cccc4cccc(Cl)c24)C3)CC1CC#N (stereo not given) + CNC(=O)c1ccc(Nc2nc(OC3CCCC3)c3c(-c4ccc5nc(C)oc5c4)c[nH]c3n2)c(OC)c1: Criterion not met
- Nc1ccccc1NC(=O)c1ccc(CNC(=O)OCc2cccnc2)cc1 + CNC(=O)c1ccc(Nc2nc(OC3CCCC3)c3c(-c4ccc5nc(C)oc5c4)c[nH]c3n2)c(OC)c1: Criterion not met
- COc1ccc([C@@H](O)c2cc(-c3ncnc4cc(N5CCOCC5)ccc34)c(F)cc2Cl)nn1 + CN1CCN(c2cc(C(=O)Nc3cc4cc(-c5cnn(C)c5)ccc4cn3)ccn2)CC1: Criterion met
- CC(Nc1ccc2c(c1)OCCn1cc(N3C(=O)OCC3C(F)F)nc1-2)C(N)=O (stereo not given) + CNC(=O)c1ccc(Nc2nc(OC3CCCC3)c3c(-c4ccc5nc(C)oc5c4)c[nH]c3n2)c(OC)c1: Criterion not met
- CCCS(=O)(=O)Nc1ccc(F)c(C(=O)c2c[nH]c3ncc(-c4ccc(Cl)cc4)cc23)c1F + CN1CCN(c2cc(C(=O)Nc3cc4cc(-c5cnn(C)c5)ccc4cn3)ccn2)CC1: Criterion met

* * *

system: 156681-154-R-J1-PDC complex spheroid viability; assay: Anticancer human tumor 156681-154-R-J1-PDC cell line growth inhibition [CLK]; settings: second compound 3.16 µM; first compound 0.00949 µM; active = viability on the fitted dose curve at most 10% of control; inactive = the rest;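 further: spheroids exposed to the agents for seven days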
Labels: active, inactive

* NC(=O)C(=Cn1cnc(-c2cc(C(F)(F)F)cc(C(F)(F)F)c2)n1)c1cncnc1 + CN1CCN(c2cc(C(=O)Nc3cc4cc(-c5cnn(C)c5)ccc4cn3)ccn2)CC1 | active
* C=CC(=O)Nc1cc(Nc2nccc(-c3cn(C)c4ccccc34)n2)c(OC)cc1N(C)CCN(C)C + CN1CCN(c2cc(C(=O)Nc3cc4cc(-c5cnn(C)c5)ccc4cn3)ccn2)CC1 | active
* CC(C)CC(NC(=O)C(Cc1ccccc1)NC(=O)c1cnccn1)B(O)O (stereo unspecified) + CNC(=O)c1ccc(Nc2nc(OC3CCCC3)c3c(-c4ccc5nc(C)oc5c4)c[nH]c3n2)c(OC)c1 | active
* CC(C)CC(NC(=O)C(Cc1ccccc1)NC(=O)c1cnccn1)B(O)O (stereo unspecified) + CN1CCN(c2cc(C(=O)Nc3cc4cc(-c5cnn(C)c5)ccc4cn3)ccn2)CC1 | active
* NC(=O)C(=Cn1cnc(-c2cc(C(F)(F)F)cc(C(F)(F)F)c2)n1)c1cncnc1 + CNC(=O)c1ccc(Nc2nc(OC3CCCC3)c3c(-c4ccc5nc(C)oc5c4)c[nH]c3n2)c(OC)c1 | inactive
* C=CC(=O)Nc1cc(Nc2nccc(-c3cn(C)c4ccccc34)n2)c(OC)cc1N(C)CCN(C)C + CNC(=O)c1ccc(Nc2nc(OC3CCCC3)c3c(-c4ccc5nc(C)oc5c4)c[nH]c3n2)c(OC)c1 | inactive

* * *

tested on: 156681-154-R-J1-PDC complex spheroid viability; test: Anticancer human tumor 156681-154-R-J1-PDC cell line growth inhibition [CLK]; conditions: second compound 0.0316 µM; first compound 0.316 µM; stronger effect = lower value;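 further: spheroids exposed to the agents for seven days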;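 on viability, T/C: 100% = DMSO vehicle control viability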
Endpoint Label: viability, T/C (%)

• CCc1c2c(nc3ccc(O)cc13)-c1cc3c(c(=O)n1C2)COC(=O)[C@]3(O)CC + CN1CCN(c2cc(C(=O)Nc3cc4cc(-c5cnn(C)c5)ccc4cn3)ccn2)CC1 = 17.2
• CC1(C)CCC(CN2CCN(c3ccc(C(=O)NS(=O)(=O)c4ccc(NCC5CCOCC5)c([N+](=O)[O-])c4)c(Oc4cnc5[nH]ccc5c4)c3)CC2)=C(c2ccc(Cl)cc2)C1 + CN1CCN(c2cc(C(=O)Nc3cc4cc(-c5cnn(C)c5)ccc4cn3)ccn2)CC1 = 90.8
• CCN1CCN(Cc2ccc(Nc3ncc(F)c(-c4cc(F)c5nc(C)n(C(C)C)c5c4)n3)nc2)CC1 + CN1CCN(c2cc(C(=O)Nc3cc4cc(-c5cnn(C)c5)ccc4cn3)ccn2)CC1 = 71.8
• C=CC(=O)N1CCN(c2nc(=O)n(-c3c(C)ccnc3C(C)C)c3nc(-c4c(O)cccc4F)c(F)cc23)C(C)C1 (stereo not given) + CNC(=O)c1ccc(Nc2nc(OC3CCCC3)c3c(-c4ccc5nc(C)oc5c4)c[nH]c3n2)c(OC)c1 = 91.4
• CC(Nc1ccc2c(c1)OCCn1cc(N3C(=O)OCC3C(F)F)nc1-2)C(N)=O (stereo not given) + CNC(=O)c1ccc(Nc2nc(OC3CCCC3)c3c(-c4ccc5nc(C)oc5c4)c[nH]c3n2)c(OC)c1 = 44.5

* * *

Recorded IC50 by entry
tested on: 156681-154-R-J1-PDC complex spheroid viability; test: Anticancer human tumor 156681-154-R-J1-PDC cell line growth inhibition [CLK]; details: curve of first compound; second compound 3.16 µM;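 further: spheroids exposed to the agents for seven days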
Endpoint Label: IC50

- CC(=O)O[C@H]1C(=O)[C@@]2(C)[C@H]([C@H](OC(=O)c3ccccc3)[C@]3(O)C[C@H](OC(=O)[C@H](O)[C@@H](NC(=O)c4ccccc4)c4ccccc4)C(C)=C1C3(C)C)[C@]1(OC(C)=O)CO[C@@H]1C[C@@H]2O + CN1CCN(c2cc(C(=O)Nc3cc4cc(-c5cnn(C)c5)ccc4cn3)ccn2)CC1: < 0.0316 µM
- O=c1[nH]cc(F)c(=O)[nH]1 + CNC(=O)c1ccc(Nc2nc(OC3CCCC3)c3c(-c4ccc5nc(C)oc5c4)c[nH]c3n2)c(OC)c1: < 0.0316 µM
- CC(=O)O[C@H]1C(=O)[C@@]2(C)[C@H]([C@H](OC(=O)c3ccccc3)[C@]3(O)C[C@H](OC(=O)[C@H](O)[C@@H](NC(=O)c4ccccc4)c4ccccc4)C(C)=C1C3(C)C)[C@]1(OC(C)=O)CO[C@@H]1C[C@@H]2O + CNC(=O)c1ccc(Nc2nc(OC3CCCC3)c3c(-c4ccc5nc(C)oc5c4)c[nH]c3n2)c(OC)c1: > 10 µM
- C=C(F)C(=O)N1CCN(c2nc(OCC3CCCN3C)nc3c2CCN(c2cccc4cccc(Cl)c24)C3)CC1CC#N (centres undefined) + CN1CCN(c2cc(C(=O)Nc3cc4cc(-c5cnn(C)c5)ccc4cn3)ccn2)CC1: < 0.0316 µM

* * *

Recorded viability, T/C by entry
tested on: 156681-154-R-J1-PDC complex spheroid viability; assay: Anticancer human tumor 156681-154-R-J1-PDC cell line growth inhibition [CLK]; details: second compound 1 µM; first compound 3.16 µM; stronger effect = lower value;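 further: spheroids exposed to the agents for seven days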;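 on viability, T/C: 100% = DMSO vehicle control viability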
Endpoint Label: viability, T/C (%)

* C=C(F)C(=O)N1CCN(c2nc(OCC3CCCN3C)nc3c2CCN(c2cccc4cccc(Cl)c24)C3)CC1CC#N (centres undefined) + CN1CCN(c2cc(C(=O)Nc3cc4cc(-c5cnn(C)c5)ccc4cn3)ccn2)CC1 | 0.1
* CC(=O)O[C@H]1C(=O)[C@@]2(C)[C@H]([C@H](OC(=O)c3ccccc3)[C@]3(O)C[C@H](OC(=O)[C@H](O)[C@@H](NC(=O)c4ccccc4)c4ccccc4)C(C)=C1C3(C)C)[C@]1(OC(C)=O)CO[C@@H]1C[C@@H]2O + CNC(=O)c1ccc(Nc2nc(OC3CCCC3)c3c(-c4ccc5nc(C)oc5c4)c[nH]c3n2)c(OC)c1 | 85
* COC1C=CCC(C)C(C)S(=O)(=O)NC(=O)c2ccc3c(c2)N(CC2CCC21)CC1(CCCc2cc(Cl)ccc21)CO3 (centres undefined) + CN1CCN(c2cc(C(=O)Nc3cc4cc(-c5cnn(C)c5)ccc4cn3)ccn2)CC1 | 0.12
* CCCS(=O)(=O)Nc1ccc(F)c(C(=O)c2c[nH]c3ncc(-c4ccc(Cl)cc4)cc23)c1F + CNC(=O)c1ccc(Nc2nc(OC3CCCC3)c3c(-c4ccc5nc(C)oc5c4)c[nH]c3n2)c(OC)c1 | 39.1
